Test: Oral bioavailability and plasma kinetics in mice (serum concentration)
Assay type: in vivo, Balb/c mice
Details: mouse, 10 mg/kg i.v., time of sample collection 0
Where a name gives a salt, the structure may show the parent alone.
result type: c in the serum 2nd analysis (µg/mL)

> print(dat)
                                   molecule  readout.value
1  N=C(N)Nc1ccc(CNC(=O)CNC(=O)[C@@H](CO)NS(=O)(=O)Cc2ccccc2)cc1 [WX-508, hydrochloride]           55.5
2  N=C(N)Nc1ccc(CNC(=O)CNC(=O)C(CO)NS(=O)(=O)Cc2cccc([N+](=O)[O-])c2)cc1 (stereo not shown) [WX-C316, hydrochloride]           67.5
3  N=C(N)Nc1ccc(CNC(=O)CNC(=O)C(CO)NS(=O)(=O)Cc2cccc(Cl)c2)cc1 (stereo not shown) [WX-C318, hydrochloride]           48.4
4  C[C@H](NC(=O)C(CO)NS(=O)(=O)Cc1ccccc1)C(=O)NCc1ccc(NC(=N)N)cc1 (stereo partly shown) [WX-532, hydrochloride]           68.8

* * *

Caco-2 assay % basolateral values for the molecules below.
Test system: Caco-2 cell monolayers
Experiment: Caco-assay: transport across Caco-2 cell monolayers
Type: in vitro ADME, human
Settings: second series, second value
Description: Transport of the compounds WX-508, WXC-316, WXC-318, WXC-324, WXC-340, WX-532, WX-538, WX-550 and WX-582 across Caco-2 cell monolayers was investigated. In this experiment the bioavailability of the said compounds after oral administration was assessed. […] The transepithelial electric resistance (TEER) is measured before and after equilibration using a Milicell ERS meter which was connected to a pair of electrodes in order to ensure the integrity of the monolayers formed on the filters. […]
Counter-ions that a name gives are not always drawn.
result type: Caco-2 assay % basolateral (%)

> print(dat)
                                   molecule       target.under.test  unit.info  readout.value
1  N=C(N)Nc1ccc(CNC(=O)CNC(=O)C(CO)NS(=O)(=O)Cc2ccc(Cl)cc2)cc1 (stereo not drawn) [WX-C340, hydrochloride]  Caco-2 cell monolayers          %            0.1
2  CN(CC(=O)NCc1ccc(NC(=N)N)cc1)C(=O)C(CO)NS(=O)(=O)Cc1ccccc1 (stereo not drawn)  Caco-2 cell monolayers          %            0.1
3  N=C(N)Nc1ccc(CNC(=O)CNC(=O)C(CO)NS(=O)(=O)Cc2cccc([N+](=O)[O-])c2)cc1 (stereo not drawn) [WX-C316, hydrochloride]  Caco-2 cell monolayers          %            0.1
4  C[C@@H](C(=O)NCc1ccc(NC(=N)N)cc1)N(C)C(=O)[C@@H](CO)NS(=O)(=O)Cc1ccc(Cl)cc1  Caco-2 cell monolayers          %            2.9
5  N=C(N)Nc1ccc(CNC(=O)CNC(=O)C(CO)NC(=O)Nc2cccc(C(=O)O)c2)cc1 (stereo not drawn) [WX-C324, hydrochloride]  Caco-2 cell monolayers          %              0
6  N=C(N)Nc1ccc(CNC(=O)CNC(=O)C(CO)NS(=O)(=O)Cc2cccc(Cl)c2)cc1 (stereo not drawn) [WX-C318, hydrochloride]  Caco-2 cell monolayers          %            0.6

* * *

Assay: Oral bioavailability and plasma kinetics in mice (serum concentration)
Format: in vivo, Balb/c mice
Details: female, Balb/c, mouse, serum, po, 300 mg/kg, 300 mg/kg oral, sample at 20 minutes, read-out: c in the serum 2nd analysis
Where a name gives a salt, the structure may show the parent alone.
concentration at 20 min values for the compounds below.
result type: concentration at 20 min (µg/mL)

> print(dat)
                                   compound              result.type  unit.info  readout.value
1  N=C(N)Nc1ccc(CNC(=O)CNC(=O)C(CO)NS(=O)(=O)Cc2cccc([N+](=O)[O-])c2)cc1 (stereo not drawn) [WX-C316, hydrochloride]  concentration at 20 min      µg/mL            7.2
2  C[C@H](NC(=O)C(CO)NS(=O)(=O)Cc1ccccc1)C(=O)NCc1ccc(NC(=N)N)cc1 (stereo partly drawn) [WX-532, hydrochloride]  concentration at 20 min      µg/mL            6.7
3  N=C(N)Nc1ccc(CNC(=O)CNC(=O)C(CO)NS(=O)(=O)Cc2cccc(Cl)c2)cc1 (stereo not drawn) [WX-C318, hydrochloride]  concentration at 20 min      µg/mL           82.6

* * *

Tested on: Caco-2 cell monolayers
Test: Caco-assay: transport across Caco-2 cell monolayers
Format: in vitro ADME, human
Conditions: second series, third value
Counter-ions that a name gives are not always drawn.
result type: Caco-2 assay % basolateral (%)

> print(dat)
                                   compound       target.under.test  readout.value
1  N=C(N)Nc1ccc(CNC(=O)CNC(=O)C(CO)NS(=O)(=O)Cc2cccc([N+](=O)[O-])c2)cc1 (stereo not drawn) [WX-C316, hydrochloride]  Caco-2 cell monolayers            3.6
2  CN(CC(=O)NCc1ccc(NC(=N)N)cc1)C(=O)C(CO)NS(=O)(=O)Cc1ccccc1 (stereo not drawn)  Caco-2 cell monolayers              0
3  C[C@@H](C(=O)NCc1ccc(NC(=N)N)cc1)N(C)C(=O)[C@@H](CO)NS(=O)(=O)Cc1ccc(Cl)cc1  Caco-2 cell monolayers            3.0
4  N=C(N)Nc1ccc(CNC(=O)CNC(=O)C(CO)NC(=O)Nc2cccc(C(=O)O)c2)cc1 (stereo not drawn) [WX-C324, hydrochloride]  Caco-2 cell monolayers            3.0
5  N=C(N)Nc1ccc(CNC(=O)CNC(=O)C(CO)NS(=O)(=O)Cc2cccc(Cl)c2)cc1 (stereo not drawn) [WX-C318, hydrochloride]  Caco-2 cell monolayers            7.0
6  N=C(N)Nc1ccc(CNC(=O)CNC(=O)C(CO)NS(=O)(=O)Cc2ccc(Cl)cc2)cc1 (stereo not drawn) [WX-C340, hydrochloride]  Caco-2 cell monolayers            0.1

* * *

Test: Oral bioavailability and plasma kinetics in mice (serum concentration)
Assay type: in vivo, Balb/c mice
Conditions: female, Balb/c, mouse, serum, po, 30 mg/kg, 30 mg/kg oral, sample at 20 minutes, read-out: c in the serum 1st analysis
Where a name gives a salt, the structure may show the parent alone.
concentration at 20 min values for the compounds below.
result type: concentration at 20 min (ng/mL)

> print(dat)
                                   compound  readout.value
1  CCCCS(=O)(=O)NC(CO)C(=O)NCC(=O)NCc1ccc(NC(=N)N)cc1 (centres unmarked) [WX-C300, hydrochloride]            200
2  N=C(N)Nc1ccc(CNC(=O)CNC(=O)C(CO)NS(=O)(=O)Cc2ccc(Cl)cc2)cc1 (centres unmarked) [WX-C340, hydrochloride]            300
3  C[C@H](NC(=O)C(CO)NS(=O)(=O)Cc1ccccc1)C(=O)NCc1ccc(NC(=N)N)cc1 (some centres unmarked) [WX-532, hydrochloride]           1500
4  N=C(N)Nc1ccc(CNC(=O)CNC(=O)[C@@H](CO)NS(=O)(=O)Cc2ccccc2)cc1 [WX-508, hydrochloride]            300
5  CC1(C)C2CCC1(CS(=O)(=O)NC(CO)C(=O)NCC(=O)NCc1ccc(NC(=N)N)cc1)C(=O)C2 (centres unmarked) [WX-C298, hydrochloride]            200
6  N=C(N)Nc1ccc(CNC(=O)CNC(=O)C(CO)NS(=O)(=O)Cc2cccc(Cl)c2)cc1 (centres unmarked) [WX-C318, hydrochloride]            100
7  CN(CC(=O)NCc1ccc(NC(=N)N)cc1)C(=O)C(CO)NS(=O)(=O)Cc1ccccc1 (centres unmarked) [WX-538]            100
8  N=C(N)Nc1ccc(CNC(=O)CNC(=O)C(CO)NS(=O)(=O)Cc2cccc([N+](=O)[O-])c2)cc1 (centres unmarked) [WX-C316, hydrochloride]            500

* * *

Experiment: Oral bioavailability and plasma kinetics in mice (serum concentration)
Type: in vivo, Balb/c mice
Details: mouse, 10 mg/kg i.v., time of sample collection 0
Structures can show the parent of a compound that is named as a salt.
result type: c in the serum 1st analysis (µg/mL)

> print(dat)
                                   compound  readout.value
1  N=C(N)Nc1ccc(CNC(=O)CNC(=O)C(CO)NS(=O)(=O)Cc2ccc(Cl)cc2)cc1 (stereo not shown) [WX-C340, hydrochloride]           51.8
2  CN(CC(=O)NCc1ccc(NC(=N)N)cc1)C(=O)C(CO)NS(=O)(=O)Cc1ccccc1 (stereo not shown) [WX-538]           45.8
3  N=C(N)Nc1ccc(CNC(=O)CNC(=O)[C@@H](CO)NS(=O)(=O)Cc2ccccc2)cc1 [WX-508, hydrochloride]           41.1
4  CC1(C)C2CCC1(CS(=O)(=O)NC(CO)C(=O)NCC(=O)NCc1ccc(NC(=N)N)cc1)C(=O)C2 (stereo not shown) [WX-C298, hydrochloride]           66.2
5  N=C(N)Nc1ccc(CNC(=O)CNC(=O)C(CO)NS(=O)(=O)Cc2cccc([N+](=O)[O-])c2)cc1 (stereo not shown) [WX-C316, hydrochloride]           45.4
6  C[C@H](NC(=O)C(CO)NS(=O)(=O)Cc1ccccc1)C(=O)NCc1ccc(NC(=N)N)cc1 (stereo partly shown) [WX-532, hydrochloride]           61.7
7  CCCCS(=O)(=O)NC(CO)C(=O)NCC(=O)NCc1ccc(NC(=N)N)cc1 (stereo not shown) [WX-C300, hydrochloride]           94.4
